- target-or-system: CDK1 (Homo sapiens)
- Sequence (P06493 whole entry): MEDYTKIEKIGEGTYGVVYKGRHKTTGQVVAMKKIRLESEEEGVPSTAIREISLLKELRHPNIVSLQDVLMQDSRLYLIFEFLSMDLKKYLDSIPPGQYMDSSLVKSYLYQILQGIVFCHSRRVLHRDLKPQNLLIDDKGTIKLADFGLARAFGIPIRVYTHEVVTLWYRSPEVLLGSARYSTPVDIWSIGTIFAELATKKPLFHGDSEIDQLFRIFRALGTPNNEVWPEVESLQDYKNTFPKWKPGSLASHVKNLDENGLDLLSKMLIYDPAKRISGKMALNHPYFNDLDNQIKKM
- Sequence (P14635 whole entry partner): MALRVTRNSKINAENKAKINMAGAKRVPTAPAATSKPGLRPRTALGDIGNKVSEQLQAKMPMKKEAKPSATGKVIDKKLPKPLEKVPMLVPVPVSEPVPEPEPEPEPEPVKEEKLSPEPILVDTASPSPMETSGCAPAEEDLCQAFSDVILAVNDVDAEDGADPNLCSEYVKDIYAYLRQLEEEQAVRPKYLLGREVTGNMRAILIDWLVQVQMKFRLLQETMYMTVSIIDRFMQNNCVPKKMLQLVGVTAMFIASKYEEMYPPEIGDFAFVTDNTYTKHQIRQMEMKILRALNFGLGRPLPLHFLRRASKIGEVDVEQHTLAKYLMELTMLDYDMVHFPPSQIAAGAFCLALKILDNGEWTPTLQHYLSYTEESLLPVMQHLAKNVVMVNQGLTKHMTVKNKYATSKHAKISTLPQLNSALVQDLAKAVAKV
recorded-endpoint: IC50

// query State IC50 (CDK1 (Homo sapiens)) of O=S(=O)(c1ccc(C(O)CO)c(C(F)(F)F)c1)N1CCc2cc(C3CC3NCC3CCNCC3)ccc21 (stereo not shown) .
// result > 10 µM

----------
- target-or-system: MST1R (Homo sapiens, UniProt Q04912)
- Sequence (Q04912 25-1400): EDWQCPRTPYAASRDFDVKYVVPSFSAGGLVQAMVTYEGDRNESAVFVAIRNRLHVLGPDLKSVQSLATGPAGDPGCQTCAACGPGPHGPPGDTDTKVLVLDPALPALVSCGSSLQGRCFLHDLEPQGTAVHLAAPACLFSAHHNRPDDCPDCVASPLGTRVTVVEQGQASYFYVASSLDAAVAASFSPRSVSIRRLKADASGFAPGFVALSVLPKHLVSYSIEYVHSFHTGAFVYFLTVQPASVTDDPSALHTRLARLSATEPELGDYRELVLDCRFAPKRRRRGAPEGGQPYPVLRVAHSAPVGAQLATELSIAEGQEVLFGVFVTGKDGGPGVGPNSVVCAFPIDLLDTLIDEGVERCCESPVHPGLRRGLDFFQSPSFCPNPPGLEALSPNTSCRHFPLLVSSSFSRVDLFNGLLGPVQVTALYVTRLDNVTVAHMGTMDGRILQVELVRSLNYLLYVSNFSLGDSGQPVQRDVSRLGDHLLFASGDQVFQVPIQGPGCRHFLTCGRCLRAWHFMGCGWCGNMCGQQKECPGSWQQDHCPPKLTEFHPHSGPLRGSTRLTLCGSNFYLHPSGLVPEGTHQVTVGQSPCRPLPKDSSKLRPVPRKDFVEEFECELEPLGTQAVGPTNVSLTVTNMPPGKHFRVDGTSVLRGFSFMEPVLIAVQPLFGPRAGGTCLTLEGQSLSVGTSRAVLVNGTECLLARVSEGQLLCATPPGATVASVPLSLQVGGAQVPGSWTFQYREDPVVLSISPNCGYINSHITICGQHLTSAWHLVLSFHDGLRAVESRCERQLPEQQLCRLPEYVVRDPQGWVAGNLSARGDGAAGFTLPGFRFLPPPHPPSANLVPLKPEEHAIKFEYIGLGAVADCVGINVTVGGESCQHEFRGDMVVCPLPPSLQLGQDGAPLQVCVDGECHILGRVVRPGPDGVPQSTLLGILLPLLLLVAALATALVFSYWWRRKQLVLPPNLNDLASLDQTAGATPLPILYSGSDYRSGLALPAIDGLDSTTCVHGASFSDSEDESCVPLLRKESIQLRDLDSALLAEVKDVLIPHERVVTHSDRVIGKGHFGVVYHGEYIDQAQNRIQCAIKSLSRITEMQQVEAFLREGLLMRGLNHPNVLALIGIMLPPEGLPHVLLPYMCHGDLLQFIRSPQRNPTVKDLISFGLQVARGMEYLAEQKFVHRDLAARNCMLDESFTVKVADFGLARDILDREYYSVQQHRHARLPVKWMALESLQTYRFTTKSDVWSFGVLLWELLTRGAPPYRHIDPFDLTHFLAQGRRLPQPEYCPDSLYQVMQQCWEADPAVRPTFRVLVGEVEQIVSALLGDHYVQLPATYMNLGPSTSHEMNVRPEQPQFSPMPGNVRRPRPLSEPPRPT
pIC50: −log10 of the molar value.
recorded-endpoint: pIC50

// query Identify the reported pIC50 for the following entry. O=S(=O)(c1ccc(C(O)CO)c(C(F)(F)F)c1)N1CCc2cc(C3CC3NCC3CCNCC3)ccc21 (stereo not shown) [LTM-1]
// result < 5.00

----------
Target protein (sequence): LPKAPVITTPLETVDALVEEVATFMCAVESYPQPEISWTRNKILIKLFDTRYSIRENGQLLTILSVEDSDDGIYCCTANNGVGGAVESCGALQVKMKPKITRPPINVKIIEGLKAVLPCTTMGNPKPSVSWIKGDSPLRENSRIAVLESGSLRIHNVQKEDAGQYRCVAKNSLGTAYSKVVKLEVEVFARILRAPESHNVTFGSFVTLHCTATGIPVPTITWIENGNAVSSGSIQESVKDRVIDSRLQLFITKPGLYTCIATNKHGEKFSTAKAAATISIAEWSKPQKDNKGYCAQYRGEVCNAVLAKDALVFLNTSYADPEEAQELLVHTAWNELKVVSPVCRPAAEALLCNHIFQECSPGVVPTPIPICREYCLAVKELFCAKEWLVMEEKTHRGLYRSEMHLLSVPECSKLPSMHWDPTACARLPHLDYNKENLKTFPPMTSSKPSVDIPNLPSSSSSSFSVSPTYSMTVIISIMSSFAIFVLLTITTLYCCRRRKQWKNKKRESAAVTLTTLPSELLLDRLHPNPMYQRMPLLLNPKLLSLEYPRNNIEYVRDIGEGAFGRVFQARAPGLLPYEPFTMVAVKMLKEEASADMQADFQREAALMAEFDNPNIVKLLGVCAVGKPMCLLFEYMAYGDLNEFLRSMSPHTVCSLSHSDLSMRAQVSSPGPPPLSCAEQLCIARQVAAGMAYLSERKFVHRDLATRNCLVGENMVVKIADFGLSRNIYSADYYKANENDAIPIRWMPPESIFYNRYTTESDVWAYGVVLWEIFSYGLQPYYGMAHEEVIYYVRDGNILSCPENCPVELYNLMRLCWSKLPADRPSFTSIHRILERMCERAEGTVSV
pIC50: −log10 of the molar value.
recorded-endpoint: pIC50

// query Identify the reported pIC50 for the following entry. O=S(=O)(c1ccc(C(O)CO)c(C(F)(F)F)c1)N1CCc2cc(C3CC3NCC3CCNCC3)ccc21 (stereo not shown) [LTM-1]
// result < 5.00

----------
- target-or-system: 60 different kinases
- test: SelectScreen kinase profiling, whole panel
- condition-notes: ten-point dilution 0.25 μM to 128 μM; read-out: IC50 against each of the 60 evaluated kinases
recorded-endpoint: IC50

// query Identify the reported IC50 for the following entry. O=S(=O)(c1ccc(C(O)CO)c(C(F)(F)F)c1)N1CCc2cc(C3CC3NCC3CCNCC3)ccc21 (stereo not shown)
// result > 10 µM

----------
- target-or-system: FYN (Homo sapiens, UniProt P06241)
- Sequence (P06241 whole entry): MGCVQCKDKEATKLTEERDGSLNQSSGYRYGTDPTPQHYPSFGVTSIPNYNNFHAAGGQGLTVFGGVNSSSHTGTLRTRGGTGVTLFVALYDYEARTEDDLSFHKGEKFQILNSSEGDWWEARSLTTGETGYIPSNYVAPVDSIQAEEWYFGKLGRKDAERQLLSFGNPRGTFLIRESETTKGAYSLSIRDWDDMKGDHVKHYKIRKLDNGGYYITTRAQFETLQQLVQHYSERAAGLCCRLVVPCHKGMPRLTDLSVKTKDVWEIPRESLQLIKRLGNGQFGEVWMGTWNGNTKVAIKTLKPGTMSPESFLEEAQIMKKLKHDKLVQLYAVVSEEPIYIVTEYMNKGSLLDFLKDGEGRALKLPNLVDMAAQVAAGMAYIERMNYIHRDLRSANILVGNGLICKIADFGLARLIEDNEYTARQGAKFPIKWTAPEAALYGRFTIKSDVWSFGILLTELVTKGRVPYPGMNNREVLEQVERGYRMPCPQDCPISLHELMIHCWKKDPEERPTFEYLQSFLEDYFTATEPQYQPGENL
recorded-endpoint: IC50

// query State IC50 (FYN (Homo sapiens, UniProt P06241)) of O=S(=O)(c1ccc(C(O)CO)c(C(F)(F)F)c1)N1CCc2cc(C3CC3NCC3CCNCC3)ccc21 (stereo not shown) [LTM-1] .
// result > 10 µM
